Numbers sourced from ChEMBL document CHEMBL2218924.

Recorded residual activity by entry
- System name: Ribosomal protein S6 kinase alpha-1 (Homo sapiens) (UniProt Q15418)
- Sequence (Q15418 whole entry): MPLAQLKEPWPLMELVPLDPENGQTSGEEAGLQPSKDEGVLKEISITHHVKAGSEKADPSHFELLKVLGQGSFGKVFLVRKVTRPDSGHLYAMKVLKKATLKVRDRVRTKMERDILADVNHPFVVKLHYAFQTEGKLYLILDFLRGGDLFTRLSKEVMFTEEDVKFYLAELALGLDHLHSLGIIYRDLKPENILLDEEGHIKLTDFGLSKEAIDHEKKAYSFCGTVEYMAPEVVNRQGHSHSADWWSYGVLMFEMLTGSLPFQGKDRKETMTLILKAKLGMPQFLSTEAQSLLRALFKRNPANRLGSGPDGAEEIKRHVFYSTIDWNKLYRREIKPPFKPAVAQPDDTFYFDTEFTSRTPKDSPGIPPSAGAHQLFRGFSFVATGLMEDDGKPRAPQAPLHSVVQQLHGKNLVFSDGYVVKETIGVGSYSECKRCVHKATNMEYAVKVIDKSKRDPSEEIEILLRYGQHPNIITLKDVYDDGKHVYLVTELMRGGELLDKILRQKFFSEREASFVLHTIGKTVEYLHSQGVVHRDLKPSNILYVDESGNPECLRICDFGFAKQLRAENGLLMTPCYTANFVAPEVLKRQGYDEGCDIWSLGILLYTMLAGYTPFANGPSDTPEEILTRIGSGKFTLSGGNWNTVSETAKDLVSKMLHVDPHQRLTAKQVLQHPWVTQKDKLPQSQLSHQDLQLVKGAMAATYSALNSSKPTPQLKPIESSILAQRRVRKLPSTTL
- Stated conditions: at 10 µM
Record the value in %, omitting the unit from your answer.

Compound | residual activity [%]
CCOc1cc2ncnc(Nc3cccc(Br)c3)c2cc1OCC | 72

Fill in the blank: the reported residual activity of "CNc1cc2c(Nc3cccc(Br)c3)ncnc2cn1" is ____. 59

Same lookup for "O=C1NC(=O)c2c1c1c3ccccc3[nH]c1c1[nH]c3cc(Br)ccc3c21" , please. 49

Same lookup for "CC[n+]1c(/C=C/N(C)c2ccccc2)n(-c2ccccc2)c2ccc(-c3nc4ccccc4s3)cc21" , please. 84

Same lookup for "N#CCCc1ccc2c(c1)-c1[nH]c3ccc([N+](=O)[O-])cc3c1CC(=O)N2" , please. 24

Same lookup for "Cn1nc2c3c(cccc31)C(=O)c1ccccc1-2" , please. 93

Same lookup for "O=C(Nc1cccc(Nc2cc(Nc3cccc(C(F)(F)F)c3)ncn2)c1)C1CC1" , please. 79

Same lookup for "O=[N+]([O-])c1ccc(-c2nc(-c3ccc(F)cc3)c(-c3ccncc3)[nH]2)cc1" , please. 104

Same lookup for "CCN(CC)C(=O)c1ccc(Nc2nc(OCC3CCCCC3)c3nc[nH]c3n2)cc1" , please. 7

Same lookup for O=C1Nc2ccccc2/C1=C1/Nc2ccccc2/C1=N\OCCC(O)CO (stereo not given) , please. 12

Same lookup for "O=C1NC(=O)c2cc(Nc3ccc(F)cc3)c(Nc3ccc(F)cc3)cc21" , please. 91

Same lookup for "Nc1ccc2ncnc(NCCc3ccc(Oc4ccccc4)cc3)c2c1" , please. 41

Same lookup for "O=C(O)c1ccc2c3c1cccc3c(=O)n1c3ccccc3nc21" , please. 79

Same lookup for "CCC(=O)Nc1ccc2ncnc(Nc3cccc(Br)c3)c2c1" , please. 84

Same lookup for "CO[C@@H]1[C@H](N(C)C(=O)c2ccccc2)C[C@H]2O[C@]1(C)n1c3ccccc3c3c4c(c5c6ccccc6n2c5c31)C(=O)NC4" , please. 1

###

Recorded residual activity by entry
- System name: Interleukin-1 receptor-associated kinase 4 (Homo sapiens)
- Stated conditions: at 10 µM
Record the value in %, omitting the unit from your answer.

Record smiles | residual activity, %
O=C(Nc1cccc(Nc2cc(Nc3cccc(C(F)(F)F)c3)ncn2)c1)C1CC1 | 80
O=C(Nc1cccc(Nc2nccc(Nc3cccc(C(F)(F)F)c3)n2)c1)C1CC1 | 44

Fill in the blank: the reported residual activity of "CCOc1cc2ncnc(Nc3cccc(Br)c3)c2cc1OCC" is ____. 18

Same lookup for "O=C1NC(=O)/C(=C/c2ccc3c(c2)OC(F)(F)O3)S1" , please. 106

###

- System name: Calcium/calmodulin-dependent protein kinase type II subunit gamma (Homo sapiens) (UniProt Q13555)
- Sequence (Q13555 whole entry): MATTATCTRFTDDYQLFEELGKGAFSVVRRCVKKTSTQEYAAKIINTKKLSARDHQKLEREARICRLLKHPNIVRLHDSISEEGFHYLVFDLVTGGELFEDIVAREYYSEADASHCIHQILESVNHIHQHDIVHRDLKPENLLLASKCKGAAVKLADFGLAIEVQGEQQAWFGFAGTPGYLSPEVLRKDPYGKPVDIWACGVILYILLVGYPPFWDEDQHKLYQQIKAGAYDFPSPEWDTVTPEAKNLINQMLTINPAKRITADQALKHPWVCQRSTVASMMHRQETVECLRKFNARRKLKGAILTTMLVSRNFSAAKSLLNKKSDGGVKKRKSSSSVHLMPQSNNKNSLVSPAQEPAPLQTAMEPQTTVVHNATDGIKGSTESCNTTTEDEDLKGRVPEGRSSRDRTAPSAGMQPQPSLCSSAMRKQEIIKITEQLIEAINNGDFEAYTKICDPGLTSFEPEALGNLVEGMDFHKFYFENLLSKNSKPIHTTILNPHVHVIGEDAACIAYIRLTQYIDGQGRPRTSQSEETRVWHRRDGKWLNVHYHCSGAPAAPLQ
- Stated conditions: at 10 µM
Recorded residual activity by entry
Record the value in %, omitting the unit from your answer.

// solved cases for residual activity follow
Compound | residual activity (%)
O=C(Nc1cccc(Nc2nccc(Nc3cccc(C(F)(F)F)c3)n2)c1)C1CC1 | 12
CNc1cc2c(Nc3cccc(Br)c3)ncnc2cn1 | 32
N#CC(C#N)=C(N)/C(C#N)=C/c1ccc(O)cc1 | 95
Cc1cc(Nc2nc(-c3ccccc3)nc3ccccc23)n[nH]1 | 16
Oc1n[nH]c2nnc(-c3c(-c4ccccc4)nn4ccccc34)cc12 | 78

Fill in the blank: the reported residual activity of "O=C1NC(=O)c2c1c1c3ccccc3[nH]c1c1[nH]c3cc(Br)ccc3c21" is ____. 21

Same lookup for "CCN(CC)C(=O)c1ccc(Nc2nc(OCC3CCCCC3)c3nc[nH]c3n2)cc1" , please. 51

Same lookup for O=C1Nc2ccccc2/C1=C1/Nc2ccccc2/C1=N\OCCC(O)CO (stereo unspecified) , please. 0

Same lookup for "CO[C@H]1C[C@@H]2CC[C@@H](C)[C@@](O)(O2)C(=O)C(=O)N2CCCC[C@H]2C(=O)O[C@H]([C@H](C)C[C@@H]2CC[C@@H](O)[C@H](OC)C2)CC(=O)[C@H](C)/C=C(\C)[C@@H](O)[C@@H](OC)C(=O)[C@H](C)C[C@H](C)/C=C/C=C/C=C/1C" , please. 96

Same lookup for "COc1cccc(-c2cc(=O)c3ccccc3o2)c1N" , please. 98

Same lookup for "NC(=O)c1ccc2[nH]c(-c3ccc(Oc4ccc(Cl)cc4)cc3)nc2c1" , please. 58

###

Recorded residual activity by entry
- System name: Tyrosine-protein kinase BTK (Homo sapiens) (UniProt Q06187)
- Sequence (Q06187 whole entry): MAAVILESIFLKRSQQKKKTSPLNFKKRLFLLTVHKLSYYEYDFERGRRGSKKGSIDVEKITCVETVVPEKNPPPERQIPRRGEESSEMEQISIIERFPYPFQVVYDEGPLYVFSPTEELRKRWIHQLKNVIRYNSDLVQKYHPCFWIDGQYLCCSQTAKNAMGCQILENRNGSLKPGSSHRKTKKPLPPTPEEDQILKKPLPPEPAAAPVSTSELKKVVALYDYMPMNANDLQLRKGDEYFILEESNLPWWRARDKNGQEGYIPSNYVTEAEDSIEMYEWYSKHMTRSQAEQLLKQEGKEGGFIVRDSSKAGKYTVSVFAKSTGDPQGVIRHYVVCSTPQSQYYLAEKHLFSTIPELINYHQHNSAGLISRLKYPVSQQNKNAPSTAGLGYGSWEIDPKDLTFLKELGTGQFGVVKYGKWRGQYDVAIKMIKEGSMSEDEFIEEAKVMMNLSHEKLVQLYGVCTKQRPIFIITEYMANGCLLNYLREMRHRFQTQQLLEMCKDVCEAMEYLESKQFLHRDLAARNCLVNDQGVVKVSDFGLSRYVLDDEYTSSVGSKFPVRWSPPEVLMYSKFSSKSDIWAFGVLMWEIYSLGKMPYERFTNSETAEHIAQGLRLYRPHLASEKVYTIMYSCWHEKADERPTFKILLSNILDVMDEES
- Stated conditions: at 1 µM
Record the value in %, omitting the unit from your answer.

// solved cases for residual activity follow
Compound | Unit string | residual activity
Oc1c2ccccc2c2c3c(cccc13)N=N2 | % | 88
N#CC(C#N)=C(N)/C(C#N)=C/c1ccc(O)cc1 | % | 94
CCN(CC)CCCCN1c2ccccc2Oc2ccc(Cl)cc21 | % | 78
CO[C@@H]1[C@H](N(C)C(=O)c2ccccc2)C[C@H]2O[C@]1(C)n1c3ccccc3c3c4c(c5c6ccccc6n2c5c31)C(=O)NC4 | % | 60

Moving on to another compound below.
Fill in the blank: the reported residual activity of "CCC(=O)Nc1ccc2ncnc(Nc3cccc(Br)c3)c2c1" is ____. 95

###

- System name: Serine/threonine-protein kinase SIK1 (Homo sapiens) (UniProt P57059)
- Sequence (P57059 whole entry): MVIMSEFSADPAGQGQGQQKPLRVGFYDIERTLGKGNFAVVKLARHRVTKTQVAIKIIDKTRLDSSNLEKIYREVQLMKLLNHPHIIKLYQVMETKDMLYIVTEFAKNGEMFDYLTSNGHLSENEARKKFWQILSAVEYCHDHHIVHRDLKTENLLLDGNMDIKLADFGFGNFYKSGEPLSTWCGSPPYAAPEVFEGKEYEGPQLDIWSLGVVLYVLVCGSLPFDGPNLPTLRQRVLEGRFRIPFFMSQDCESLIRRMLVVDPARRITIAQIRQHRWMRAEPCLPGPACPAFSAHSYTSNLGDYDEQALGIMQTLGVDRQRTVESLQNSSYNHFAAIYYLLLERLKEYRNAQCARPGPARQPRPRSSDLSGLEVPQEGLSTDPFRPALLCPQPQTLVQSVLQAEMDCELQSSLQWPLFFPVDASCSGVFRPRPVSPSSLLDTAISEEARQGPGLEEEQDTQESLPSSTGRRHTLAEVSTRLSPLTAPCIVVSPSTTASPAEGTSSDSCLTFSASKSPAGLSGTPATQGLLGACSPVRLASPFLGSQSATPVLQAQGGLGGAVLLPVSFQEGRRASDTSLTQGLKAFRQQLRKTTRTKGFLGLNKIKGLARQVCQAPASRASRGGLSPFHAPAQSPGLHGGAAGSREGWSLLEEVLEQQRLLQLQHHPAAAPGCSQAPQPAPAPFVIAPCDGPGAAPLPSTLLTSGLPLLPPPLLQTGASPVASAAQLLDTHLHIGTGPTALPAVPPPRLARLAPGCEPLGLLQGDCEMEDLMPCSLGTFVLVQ
- Stated conditions: at 10 µM
Recorded residual activity by entry
Record the value in %, omitting the unit from your answer.

Record smiles | residual activity (%)
Oc1ccc(-c2nc(-c3ccc(F)cc3)c(-c3ccncc3)[nH]2)cc1 | 65
Ic1cccc(CSc2nnc(-c3ccncc3)o2)c1 | 100
N#CC(C#N)=C(N)/C(C#N)=C/c1ccc(O)cc1 | 75
Cc1nc(-c2ccccc2)c(-c2ccncc2)o1 | 100
CNc1cc2c(Nc3cccc(Br)c3)ncnc2cn1 | 57
CC(C)n1cnc2c(NCc3ccccc3)nc(NCCCO)nc21 | 100
C[C@@H](N)[C@H]1CC[C@H](C(=O)Nc2ccncc2)CC1 | 115

Moving on to another compound below.
What residual activity appears in the records for this compound with Serine/threonine-protein kinase SIK1 (Homo sapiens) (UniProt P57059)? "COc1cc2ncnc(Nc3ccc(Oc4ccccc4)cc3)c2cc1OC" 8

###

Recorded residual activity by entry
- System name: Serine/threonine-protein kinase mTOR (Homo sapiens) (UniProt P42345)
- Stated conditions: at 10 µM
Record the value in %, omitting the unit from your answer.

// solved cases for residual activity follow
Record smiles | System name | residual activity (%)
Oc1n[nH]c2nnc(-c3c(-c4ccccc4)nn4ccccc34)cc12 | Serine/threonine-protein kinase mTOR (Homo sapiens) (UniProt P42345) | 76
CC[n+]1c(/C=C/N(C)c2ccccc2)n(-c2ccccc2)c2ccc(-c3nc4ccccc4s3)cc21 | Serine/threonine-protein kinase mTOR (Homo sapiens) (UniProt P42345) | 86

Moving on to another molecule below.
Fill in the blank: the reported residual activity of "Cc1cc2ncc(-c3ccccc3)nc2cc1C" is ____. 100

###

- System name: Mitogen-activated protein kinase kinase kinase 7 (Homo sapiens)
- Sequence (whole entry): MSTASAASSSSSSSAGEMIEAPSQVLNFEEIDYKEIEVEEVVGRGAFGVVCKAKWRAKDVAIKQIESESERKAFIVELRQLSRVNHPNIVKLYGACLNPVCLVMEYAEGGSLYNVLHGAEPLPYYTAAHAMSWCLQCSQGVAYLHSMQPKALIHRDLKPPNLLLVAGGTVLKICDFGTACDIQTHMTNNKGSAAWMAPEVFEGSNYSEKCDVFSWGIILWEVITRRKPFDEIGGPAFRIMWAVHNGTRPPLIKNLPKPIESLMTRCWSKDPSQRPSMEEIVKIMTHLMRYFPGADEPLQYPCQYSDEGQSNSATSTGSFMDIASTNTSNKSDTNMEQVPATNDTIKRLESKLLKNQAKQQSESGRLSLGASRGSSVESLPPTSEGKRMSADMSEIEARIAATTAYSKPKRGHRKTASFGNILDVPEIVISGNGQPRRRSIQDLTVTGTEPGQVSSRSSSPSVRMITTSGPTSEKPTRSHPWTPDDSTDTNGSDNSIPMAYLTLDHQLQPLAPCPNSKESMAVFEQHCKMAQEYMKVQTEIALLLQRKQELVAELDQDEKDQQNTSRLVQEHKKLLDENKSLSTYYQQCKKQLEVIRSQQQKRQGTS
- Stated conditions: at 1 µM
Endpoint name: residual activity
The reply should consist of the numeric value with the unit placed after it.

// solved cases for residual activity follow
Record smiles | residual activity
Cn1nc2c3c(cccc31)C(=O)c1ccccc1-2 | 87%
COc1cc2ncnc(Nc3ccc(NC(=O)c4ccccc4)cc3)c2cc1OC | 107%
CC(=O)c1ccc(N2CCOCC2)cc1O | 93%
COc1cc2ncc(-c3ccccc3)nc2cc1OC | 98%

Fill in the blank: the reported residual activity of "Cn1cnc2cc3c(Nc4cccc(Br)c4)ncnc3cc21" is ____. 98%
